Can you tell me TGI for the items I'm about to list?
- System: LOX IMVI melanoma
- Procedure Details: NCI tumour cell line growth inhibition, 48 h

Output measured TGI for this item: O=c1[nH]c(=O)n(C/C=C/CBr)nc1Br
5.78 µM

Output TGI of BrCC(Br)(c1ccccc1)c1ccccc1-c1cc(-c2ccccc2)cc(-c2ccccc2)n1 (stereo unspecified)
5.88 µM

Specify TGI for CN(C)C(=O)C1CCN(Cc2c[nH]c3ccccc23)CC1 and stop.
> 100 µM

// Input: O=C(O)CCSC(=O)Nc1ccccc1Cl . Output its TGI only.
> 100 µM

Consider the molecule CCN(CC)CCNc1ccc(C)c2sc3ccccc3c(=O)c12 and give its recorded TGI.
3.26 µM

Return TGI for the following molecule: CN(O)C(=S)c1ccccc1
7.76 µM

For the molecule O=C1C(=O)N(c2cccc(C(F)(F)F)c2)C(=O)C(=O)C1c1nc2ccccc2s1 , give its reported TGI.
> 100 µM

Output measured TGI for this item: COc1ccc(CNC(=O)[C@H](Cc2ccc(O)cn2)NC(C)=O)cc1
> 100 µM

# return recorded TGI for entry NNC(=O)N/N=C1\C(=O)N(c2nccs2)C(=O)C(=O)C1c1nc2ccccc2s1 (stereo unspecified)
> 100 µM

Input O=C(Nc1nc(C23CC4CC(CC(C4)C2)C3)cs1)c1cc2c(ccc3ccccc32)oc1=O , output reported TGI.
> 100 µM

Please report the measured TGI for COc1ccc(N2C(=O)/C(=C\c3cccc(Oc4ccccc4)c3)SC2c2ccccc2)cc1 (stereo unspecified)
> 100 µM
